assay_name: Antimigratory activity against human EC17 cells assessed as inhibition of migration after 24 hrs by chemotaxis cell chamber assay
Assay type: functional, cell-based
condition_notes: EC17, 24 h
pIC50: −log10 of the molar value.

molecule	pIC50
Cc1cc(O)c2c(c1C=O)OCC(CC[C@H]1[C@@H](C)CCCC1(C)C)=CC2 (relative stereo)	5.70
C=C(CC[C@H]1[C@@H](C)CCCC1(C)C)C(O)Cc1c(OC)cc(C)c(C=O)c1O (relative stereo)	5.34
C=C(CC[C@H]1[C@@H](C)CCCC1(C)C)C(O)Cc1c(O)cc(C)c(C=O)c1O (relative stereo)	5.70
C=C(CCC1CCCCC1)C(O)Cc1c(O)cc(C)c(C=O)c1O (centres undefined)	5.07
C=C(CC/C=C(\C)CCC=C(C)C)C(O)Cc1c(O)cc(C)c(C=O)c1O (centres undefined)	5.12
C=C(CCC12CC3CC(CC(C3)C1)C2)C(O)Cc1c(O)cc(C)c(C=O)c1O (centres undefined)	5.19
C=C(CC[C@H]1[C@@H](C)CCCC1(C)C)C(=O)Cc1c(O)cc(C)c(C=O)c1O (relative stereo)	5.36
Cc1cc(O)c(CC(O)C(C)CC[C@H]2[C@@H](C)CCCC2(C)C)c(O)c1C=O (relative stereo)	5.67
C=C(C)C(O)Cc1c(O)cc(C)c(C=O)c1O (centres undefined)	4.52
